- SYSTEM_UNDER_TEST: ATR kinase (Homo sapiens)
- Construct: endogenous in cells; host or cells: HT29 cells (ECACC #85061109)
- Sequence (Q13535 whole entry): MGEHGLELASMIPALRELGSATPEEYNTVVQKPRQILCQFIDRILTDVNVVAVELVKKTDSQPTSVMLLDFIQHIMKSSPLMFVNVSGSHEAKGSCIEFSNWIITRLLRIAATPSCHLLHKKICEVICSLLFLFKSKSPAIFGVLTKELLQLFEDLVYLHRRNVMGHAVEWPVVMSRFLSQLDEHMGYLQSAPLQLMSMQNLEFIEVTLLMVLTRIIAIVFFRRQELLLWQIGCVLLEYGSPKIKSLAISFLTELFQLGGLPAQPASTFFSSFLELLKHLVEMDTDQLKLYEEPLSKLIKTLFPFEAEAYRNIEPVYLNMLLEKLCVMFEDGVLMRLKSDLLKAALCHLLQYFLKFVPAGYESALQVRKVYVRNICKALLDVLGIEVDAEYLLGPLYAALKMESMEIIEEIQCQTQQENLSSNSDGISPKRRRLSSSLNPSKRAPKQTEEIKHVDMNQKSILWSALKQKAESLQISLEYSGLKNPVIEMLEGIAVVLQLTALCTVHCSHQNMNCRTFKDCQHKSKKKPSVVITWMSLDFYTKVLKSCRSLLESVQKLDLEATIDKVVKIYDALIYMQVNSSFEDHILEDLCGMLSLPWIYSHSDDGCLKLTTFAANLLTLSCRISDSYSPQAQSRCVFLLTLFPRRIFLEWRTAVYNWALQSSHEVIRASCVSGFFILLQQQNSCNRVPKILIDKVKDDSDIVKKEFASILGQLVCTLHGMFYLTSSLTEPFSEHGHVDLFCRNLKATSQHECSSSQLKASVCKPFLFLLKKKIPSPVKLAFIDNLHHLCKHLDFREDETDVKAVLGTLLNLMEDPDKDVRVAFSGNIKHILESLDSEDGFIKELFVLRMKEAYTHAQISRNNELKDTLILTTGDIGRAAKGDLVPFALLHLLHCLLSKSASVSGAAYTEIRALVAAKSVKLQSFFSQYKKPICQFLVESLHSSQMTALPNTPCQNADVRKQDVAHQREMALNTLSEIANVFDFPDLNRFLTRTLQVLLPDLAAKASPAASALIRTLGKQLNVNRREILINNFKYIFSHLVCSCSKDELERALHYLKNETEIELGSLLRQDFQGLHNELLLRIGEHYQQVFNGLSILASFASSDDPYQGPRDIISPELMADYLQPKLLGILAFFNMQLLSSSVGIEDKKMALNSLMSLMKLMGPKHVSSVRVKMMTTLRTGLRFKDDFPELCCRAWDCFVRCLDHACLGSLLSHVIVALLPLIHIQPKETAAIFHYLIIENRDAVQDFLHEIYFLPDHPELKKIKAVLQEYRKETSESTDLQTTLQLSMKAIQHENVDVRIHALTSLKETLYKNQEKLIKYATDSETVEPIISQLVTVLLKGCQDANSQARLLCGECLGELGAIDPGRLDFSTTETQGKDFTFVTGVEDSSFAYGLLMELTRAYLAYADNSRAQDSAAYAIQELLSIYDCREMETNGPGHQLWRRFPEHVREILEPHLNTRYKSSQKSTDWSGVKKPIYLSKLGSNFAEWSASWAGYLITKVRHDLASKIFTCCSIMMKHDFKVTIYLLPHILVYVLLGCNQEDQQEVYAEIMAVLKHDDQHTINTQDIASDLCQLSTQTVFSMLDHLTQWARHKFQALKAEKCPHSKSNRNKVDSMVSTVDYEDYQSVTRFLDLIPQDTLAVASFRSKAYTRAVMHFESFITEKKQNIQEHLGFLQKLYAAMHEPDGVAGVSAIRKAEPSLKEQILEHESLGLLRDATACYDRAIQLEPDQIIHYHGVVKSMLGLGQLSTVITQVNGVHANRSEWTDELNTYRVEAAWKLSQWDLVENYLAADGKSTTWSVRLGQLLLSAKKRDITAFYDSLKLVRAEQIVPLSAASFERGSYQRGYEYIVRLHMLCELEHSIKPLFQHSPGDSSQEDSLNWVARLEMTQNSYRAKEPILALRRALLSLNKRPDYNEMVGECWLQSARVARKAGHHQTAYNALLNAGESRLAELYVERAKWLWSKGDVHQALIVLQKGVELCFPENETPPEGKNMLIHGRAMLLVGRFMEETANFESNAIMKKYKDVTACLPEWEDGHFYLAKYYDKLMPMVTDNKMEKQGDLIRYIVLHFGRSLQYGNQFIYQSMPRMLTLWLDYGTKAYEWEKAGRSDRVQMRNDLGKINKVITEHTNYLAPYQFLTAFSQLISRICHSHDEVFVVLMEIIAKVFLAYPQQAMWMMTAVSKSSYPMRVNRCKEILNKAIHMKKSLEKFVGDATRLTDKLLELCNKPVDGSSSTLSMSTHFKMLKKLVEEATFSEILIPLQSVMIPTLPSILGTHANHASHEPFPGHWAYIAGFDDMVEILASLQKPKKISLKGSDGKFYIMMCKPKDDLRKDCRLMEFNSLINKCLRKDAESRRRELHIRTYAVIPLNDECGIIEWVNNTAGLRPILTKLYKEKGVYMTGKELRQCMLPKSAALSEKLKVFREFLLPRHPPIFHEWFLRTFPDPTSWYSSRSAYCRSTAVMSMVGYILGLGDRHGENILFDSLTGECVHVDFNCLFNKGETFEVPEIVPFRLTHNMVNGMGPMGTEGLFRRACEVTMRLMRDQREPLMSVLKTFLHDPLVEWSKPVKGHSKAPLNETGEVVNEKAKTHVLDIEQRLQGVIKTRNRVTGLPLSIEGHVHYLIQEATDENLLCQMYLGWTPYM
- Sequence (Q8WXE1 whole entry partner): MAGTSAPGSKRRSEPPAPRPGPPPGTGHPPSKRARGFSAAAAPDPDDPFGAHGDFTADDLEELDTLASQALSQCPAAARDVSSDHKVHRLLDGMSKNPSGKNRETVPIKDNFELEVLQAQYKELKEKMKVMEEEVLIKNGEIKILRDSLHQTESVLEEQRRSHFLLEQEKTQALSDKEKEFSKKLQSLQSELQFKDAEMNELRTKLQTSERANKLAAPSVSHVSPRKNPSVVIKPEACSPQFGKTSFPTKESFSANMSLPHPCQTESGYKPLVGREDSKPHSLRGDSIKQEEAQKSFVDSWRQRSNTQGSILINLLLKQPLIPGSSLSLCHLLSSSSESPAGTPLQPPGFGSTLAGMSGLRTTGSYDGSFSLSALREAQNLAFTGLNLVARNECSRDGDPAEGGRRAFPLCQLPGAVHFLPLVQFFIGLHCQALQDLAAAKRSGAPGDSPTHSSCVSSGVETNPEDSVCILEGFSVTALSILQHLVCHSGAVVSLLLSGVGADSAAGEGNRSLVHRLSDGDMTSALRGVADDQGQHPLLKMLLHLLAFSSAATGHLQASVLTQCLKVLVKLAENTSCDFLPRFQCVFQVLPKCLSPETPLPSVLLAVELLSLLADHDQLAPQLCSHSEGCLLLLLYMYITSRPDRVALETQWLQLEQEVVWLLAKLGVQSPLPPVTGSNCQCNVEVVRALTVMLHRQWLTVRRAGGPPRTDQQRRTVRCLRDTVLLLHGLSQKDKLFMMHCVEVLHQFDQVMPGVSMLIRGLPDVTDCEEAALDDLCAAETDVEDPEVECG
- ASSAY_INFO: Assay b): ATR cellular potency (pChk1 Ser345 in HT29 cells after 4NQO)
- Format: cell-based
- CONDITION_DESCRIPTION: HT29 cells, 4NQO, pChk1 Ser345; Table 2; read-out: Assay b) ATR Cell IC50
REPORTED_METRIC: IC50

Solved cases below.
INSERT INTO measurements (compound, measured) VALUES
  ('CO[C@H]1CC[C@H](n2c(=O)n(C)c3cnc4cc(F)c(-c5ccc(OCCCN(C)C)cc5)cc4c32)C1 (single isomer, unassigned) [Example 13]', '> 30 µM'),
  ('CN(C)CCCOc1ccc(-c2ccc3ncc4c(c3c2)n(C2CCOCC2)c(=O)n4C)cc1 [Example 44]', '> 21.7 µM'),
  ('CO[C@H]1C[C@@H](n2c(=O)n(C)c3cnc4ccc(-c5ccc(OCCN(C)C)cc5)cc4c32)C1 [Example 55]', '> 30 µM');

As a next step, examine the compound that follows.
Dear colleague, I am looking for the recorded IC50 of the following compound: CO[C@H]1C[C@@H](n2c(=O)n(C)c3cnc4cc(F)c(-c5ccc(OCCCN(C)C)cc5)cc4c32)C1 [Example 12]
> 30 µM
